test system: ddY-type mice; test: Analgesic efficacy test (1): acetic acid writhing test (nociceptive pain model animal); assay type: in vivo; conditions: Mus musculus, 25 min; writhing number, male ddY mice, oral single dose 100 mg/kg, acetic acid i.p. 25 min after administration, mean ± standard error; read-out: Percent Suppression (%)
readout-label: inhibition in vivo at 100 mg/kg (%)
Express the result in % but write the number alone.

Record summary for `NC(=O)CC[C@H](NC(=O)C=Cc1ccccc1F)C(=O)O` : reported inhibition in vivo at 100 mg/kg = 31.6

Record summary for `O=Cn1cc(C[C@H](NC(=O)C=Cc2ccccc2F)C(=O)O)c2ccccc21` : reported inhibition in vivo at 100 mg/kg = 55.4

Record summary for `COc1ccc(C[C@H](NC(=O)C=Cc2cccc(F)c2)C(=O)O)cc1` : reported inhibition in vivo at 100 mg/kg = 47.3

Record summary for `COc1ccc(C[C@H](NC(=O)C=Cc2ccc(C#N)cc2)C(=O)O)cc1` : reported inhibition in vivo at 100 mg/kg = 48.7

Record summary for `COc1ccccc1C=CC(=O)N[C@@H](Cc1c[nH]c2ccccc12)C(=O)O` : reported inhibition in vivo at 100 mg/kg = 60.9

Record summary for `O=C(C=Cc1cc(F)ccc1F)N[C@@H](Cc1c[nH]c2ccccc12)C(=O)O` : reported inhibition in vivo at 100 mg/kg = 61.3

Record summary for `O=C(C=Cc1ccc(O)cc1)N[C@@H](Cc1c[nH]c2ccccc12)C(=O)O` : reported inhibition in vivo at 100 mg/kg = 37.3
